- Assay name: NCI Yeast Anticancer Drug Screen. Data for the rad50 strain (AID 155);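 note: 0% = growth of vehicle-only cultures of the same strain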
- Condition label: S. cerevisiae rad50 strain growth inhibition; at 50.0 µM (retest, dose inferred, filed as 5.0); stronger effect = higher value
Compounds without any hit were thinned out: in the full panel of roughly 79,000, 15% have a hit.
We use 70% as the dividing line for growth inhibition: on or above the line is T, below is F.

# example entries with known answers
> print(dat)
                                   compound  group.label
1                Cc1[nH]c2ccccc2c1-c1ccccc1            T
2    Nc1ccc2c(c1)[nH]c(=O)c1cc(Cl)c(Cl)cc12            T
3      C[n+]1c(/C=C/c2ccc(Cl)cc2)sc2ccccc21            F
4  CC(COC(=O)C(c1ccccc1)C1C=CCCC1)CN1CCCC1 (stereo unspecified)            F

API: the following record is the query input.
-- ask Does O=C(CC1CCCC(CC(=O)c2ccccc2)N1CCc1ccccc1)c1ccccc1 (stereo unspecified) have a reported growth inhibition of at least 70%?
-- reply T

###

Measured growth inhibition accompanies every entry in the list below.
- Assay name: NCI Yeast Anticancer Drug Screen. Data for the cln2 rad14 strain (AID 165);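 note: 0% = growth equal to vehicle treated cultures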
- Condition label: S. cerevisiae cln2 rad14 strain, at 50.0 µM, stronger effect = higher value
This is part of a sample that, as a whole, favours compounds with a hit. Of some 79,000 tested, about 15% had one in any assay.
Only the number, expressed in %, is required.

-- ask State the recorded growth inhibition for this entry: CC(CN(C)C)C(/C=C/c1ccccc1)=N\NC(=O)c1ccccc1 (centres undefined)
-- reply 3.15

-- ask Also need COC1=C(/C(=N/Nc2ccc([N+](=O)[O-])cc2[N+](=O)[O-])c2ccccc2)COC1=O , thanks.
-- reply 4.15

-- ask Also need CC(=O)OC(C)C1C2=C(C(=O)CC1(C)O)C(=O)c1c(ccc(-c3ccc4c(c3O)C(=O)C3=C(C4=O)C(C(C)OC(C)=O)C(C)(O)CC3=O)c1O)C2=O (centres undefined) , thanks.
-- reply 70.8

-- ask Also need [Cl-].[La+3].[O-]/N=C(\c1ccccc1)c1ccccn1.[O-]/N=C(\c1ccccc1)c1ccccn1.[O-]/N=C(\c1ccccc1)c1ccccn1 , thanks.
-- reply 43.5

###

- Assay name: NCI Yeast Anticancer Drug Screen. Data for the mec2-1 strain (AID 157)
- Condition label: S. cerevisiae mec2-1 strain, at 50.0 µM
About 79,000 compounds went through this panel and 15% of them were active in at least one assay; those are over-represented in the sample as a whole. Active and inactive are the calls of the source. Cut-off read from the data, not from the text of the source: active = growth inhibition above about 70%; inactive = the rest.
# output must be one of active, inactive

> print(dat)
                                   compound  group.label
1  CCOc1c(N=Nc2ccc(Cl)cc2)c(-c2ccccc2)nn1C(N)=S       active
2  COC(=O)C1=C(C)NC(C)=C([N+](=O)[O-])C1c1cccc(N=O)c1 (stereo unspecified)       active
3          CC(=O)/C(=C\c1cccs1)C(=O)CCN(C)C     inactive

-- ask # fetch the recorded call for CC(C)=CCC/C(C)=C/COc1ccc(/C=C2/C(=O)N(O)[C@@H](C)C(=O)N2O)cc1 here
-- reply active

-- ask Also need COC(=O)CCCCC(=O)N(C(C)C)C(C)C , thanks.
-- reply inactive

-- ask Also need CCn1c2ccccc2c(=O)c2c(OC)ccc(OC)c21 , thanks.
-- reply inactive

-- ask Also need CCc1c(-c2ccccc2)c(CN2CCCCC2)c2ccccn12 , thanks.
-- reply inactive

-- ask Also need CC(C)C(=O)[O][Bi]([c]1ccccc1)[c]1ccccc1 , thanks.
-- reply active

-- ask Also need COc1ccc(C2COc3cc(OC(C)=O)c(OC(C)=O)cc3C2)cc1 (stereo unspecified) , thanks.
-- reply active

-- ask Also need CC(C)OC(=O)CCCCCC1CCCCC1 , thanks.
-- reply inactive

-- ask Also need Cc1ccc(S(=O)(=O)C(=S)Sc2ccccc2)cc1 , thanks.
-- reply inactive

###

- Assay name: NCI Yeast Anticancer Drug Screen. Data for the mlh1 rad18 strain (AID 175)
- Condition label: S. cerevisiae mlh1 rad18 strain growth inhibition; at 50.0 µM (retest, dose inferred, filed as 5.0)
Compounds without any hit were thinned out: in the full panel of roughly 79,000, 15% have a hit. The source made the active and inactive calls. Rule as the data show it: active = growth inhibition above about 70%; inactive = the rest.
# output must be one of active, inactive

> print(dat)
                                   molecule  group.label
1  CCOC(=O)C1=C(C)NC(C)=C(C(=O)OCC)C1c1c(-c2ccccc2)noc1C     inactive
2         COc1ccc2c(Cc3cc(Cl)ccc3O)cncc2c1O     inactive
3  CN(C)C1=NC2=S(SC(Nc3ccccc3)=N2)S1 (stereo unspecified)     inactive
4  CCCCCCCCCCCCCCCC(=O)N1CC[N+](C)(CC2=CC3(Cl)C(Cl)=C(Cl)C2(Cl)C3(Cl)Cl)CC1 (stereo unspecified)       active
5  CC(=O)CC1(O)C(=O)Nc2ccc(Br)cc21 (stereo unspecified)     inactive

API: the following record is the query input.
-- ask # fetch the recorded call for CC(CCOP(=O)(O)OCCC(C)CC(C)(C)C)CC(C)(C)C (stereo unspecified) here
-- reply inactive

###

- Assay name: NCI Yeast Anticancer Drug Screen. Data for the mec2-1 strain (AID 157)
- Condition label: S. cerevisiae mec2-1 strain, at 50.0 µM, stronger effect = higher value
About 79,000 compounds went through this panel and 15% of them were active in at least one assay; those are over-represented in the sample as a whole.
Measured growth inhibition accompanies every entry in the list below.
Only the number, expressed in %, is required.

Reference set, count: 3
> print(dat)
                                  compound       assay.metric    val
1  O=C(c1ccc(Cl)cc1)c1ccc([N+](=O)[O-])cc1  growth inhibition  -16.4
2          C=C(Cl)C(=NC(C)(C)C)Nc1ccccc1Cl  growth inhibition   59.5
3      O=C(Nc1ccccc1)c1ccc([N+](=O)[O-])o1  growth inhibition   95.7

Here is another compound to look at.
-- ask State the recorded growth inhibition for this entry: Clc1ccc(SSN2CCCCC2)cc1
-- reply 80.3

###

- Assay name: NCI Yeast Anticancer Drug Screen. Data for the rad50 strain (AID 155);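 note: 0% = growth of vehicle-only cultures of the same strain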
- Condition label: S. cerevisiae rad50 strain growth inhibition; at 50.0 µM (retest, dose inferred, filed as 5.0)
About 79,000 compounds went through this panel and 15% of them were active in at least one assay; those are over-represented in the sample as a whole. The source made the active and inactive calls. Cut-off read from the data, not from the text of the source: active = growth inhibition above about 70%; inactive = the rest.
# output must be one of label 1 (active), label 0 (inactive)

# example entries with known answers
> print(dat)
                                   compound  group.label
1             O=c1ccnc(Nc2ccc[nH]c2=S)[nH]1      label 0
2                            CC(C)C(O)C(C)C      label 0
3             O/N=C1/CCCC/C1=C/c1ccc(Cl)cc1      label 0
4           Cc1cc(C=Nc2ccccc2)c(O)c2ncccc12      label 1
5  Cc1ccc(S(=O)/C=C/S(=O)(=O)c2ccc(C)cc2)cc1 (centres undefined)      label 1

-- ask # fetch the recorded call for CC(C)c1cccc2sc(NC(=O)C(=O)C(C#N)c3cccc4ccccc34)nc12 (centres undefined) here
-- reply label 0

-- ask Also need COc1ccc2nc3cc(Cl)ccc3c(NCCCN(Cc3cc(OC)c(OC)c(OC)c3)Cc3cc(OC)c(OC)c(OC)c3)c2c1 , thanks.
-- reply label 1

-- ask Also need COC(=O)CCc1c(Cc2ccc[nH]2)[nH]c(C(=O)OCc2ccccc2)c1C , thanks.
-- reply label 1

###

- Assay name: NCI Yeast Anticancer Drug Screen. Data for the bub3 strain (AID 167)
- Condition label: S. cerevisiae bub3 mutant strain, at 5.0 µM (retest, dose inferred, filed as 0.5), stronger effect = higher value
About 79,000 compounds went through this panel and 15% of them were active in at least one assay; those are over-represented in the sample as a whole. Active and inactive are the calls of the source. Rule as the data show it: active = growth inhibition above about 70%; inactive = the rest.
Assay metric: growth inhibition

-- ask State the recorded growth inhibition for this entry: Cc1[nH]c2ccccc2c1-c1ccccc1
-- reply -62% (inactive)

-- ask Also need [Cl-].[La+3].[O-]/N=C(\c1ccccc1)c1ccccn1.[O-]/N=C(\c1ccccc1)c1ccccn1.[O-]/N=C(\c1ccccc1)c1ccccn1 , thanks.
-- reply 42% (inactive)

-- ask Also need CCOC(=O)C1(Br)CCN(S(=O)(=O)c2ccc(C)cc2)c2ccccc2C1=O (configuration not stated) , thanks.
-- reply -3% (inactive)

-- ask Also need O=c1[nH]c2c([N+](=O)[O-])cc(Cl)cc2nc1/C=C(\O)c1ccco1 , thanks.
-- reply 4% (inactive)

-- ask Also need CC12OC1C(=O)c1ccccc1C2=O (configuration not stated) , thanks.
-- reply 9% (inactive)

-- ask Also need Cc1cc(C)c(O)c(Cc2cc(Cl)cc(Cc3cc(C)cc(C)c3O)c2O)c1 , thanks.
-- reply -9% (inactive)

-- ask Also need CC(=O)Oc1c2ccccc2c(C)c2c1ccc1ccccc12 , thanks.
-- reply 37% (inactive)

Recorded values, source PubChem BioAssay (NCI).
